The reported numbers originate from patent US20230250191A1.

Consider the following binders; for each one, report its pKd.
# system_tested: T1, cynomolgus monkey IgE CH3-CH4 (cynomolgus monkey)
# T1 construct: domain: CH3-CH4; Custom protein; also called Biotin -cyno IgE CH3-CH4; Biotin-cyno IgE
# method_summary: BLI (Octet), method of Example 2, biotinylated cynomolgus IgE CH3-CH4
Notebook: values listed as pKd are -log10 of the concentration (mol/L).

[ask] // returns reported pKd for input AB1904Am2 (antibody, V domains shown, IgG1 format) VH: EVQLVESGGGLVQPGGSLRLSCAVSGYSIRSGYSWNWVRQAPGKGLEWVSVITYAGSTNYADSVKGRFTISRDDSKNTFYLQMNSLRAEDTAVYYCARGSHYFGHWHFAVWGQGTLVTVSS VL: DIQLTQSPSSLSASVGDRVTITCRASQSVADEWDSYMNWYQQKPGKAPKLLIYAASYLQSGVPSRFSGSGSGTDFTLTISSLQPEDFATYYCQQSHEDPYTFGQGTKLEIK
[reply] 9.96

[ask] What do we get for AB1904Am3 (antibody, V domains shown, IgG1 format) VH: EVQLVESGGGLVQPGGSLRLSCAVSGYSITSGYSWNWVRQAPGKGLEWVSVITYAGSTNYADSVKGRFTISRDDSKNTFYLQMNSLRAEDTAVYYCARGTHYFGHWHFAVWGQGTLVTVSS VL: DIQLTQSPSSLSASVGDRVTITCRASQSVDAEGDSYMNWYQQKPGKAPKLLIYAASYLQSGVPSRFSGSGSGTDFTLTISSLQPEDFATYYCQQSHEDPYTFGQGTKLEIK ?
[reply] 9.80

[ask] Now consider AB1904Am11 (antibody, V domains shown, IgG1 format) VH: EVQLVESGGGLVQPGGSLRLSCAVSGYSITSGYSWNWVRQAPGKGLEWVSVITYAGSTNYADSVKGRFTISRDDSKNTFYLQMNSLRAEDTAVYYCARGTHYFGHWHFAVWGQGTLVTVSS VL: DIQLTQSPSSLSASVGDRVTITCRASQSVNDEADSYMNWYQQKPGKAPKLLIYAASYLQSGVPSRFSGSGSGTDFTLTISSLQPEDFATYYCQQSHEDPYTFGQGTKLEIK .
[reply] 9.77

[ask] Next binder up: AB1904Am6 (antibody, V domains shown, IgG1 format) VH: EVQLVESGGGLVQPGGSLRLSCAVSGYSITSGYSWNWVRQAPGKGLEWVSVITYAGSTNYADSVKGRFTISRDDSKNTFYLQMNSLRAEDTAVYYCARGSNYFGHWHFAVWGQGTLVTVSS VL: DIQLTQSPSSLSASVGDRVTITCRASQSVDSEGDSYMNWYQQKPGKAPKLLIYAASYLQSGVPSRFSGSGSGTDFTLTISSLQPEDFATYYCQQSHEDPYTFGQGTKLEIK
[reply] 9.74
